Where do the numbers come from? From the supplement of paper PMC11208160.

Test: recombinant barcode read abundance after kanamycin selection (control-corrected) (log10(CPM+1)); higher = more efficient recombination; sequences stand for … in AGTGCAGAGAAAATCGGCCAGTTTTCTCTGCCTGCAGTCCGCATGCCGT…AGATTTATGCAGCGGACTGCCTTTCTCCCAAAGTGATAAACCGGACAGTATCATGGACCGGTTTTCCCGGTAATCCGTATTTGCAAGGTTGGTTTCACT; site = the 11-nt target;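 further: IS621 recombinase and bridge RNA in Escherichia coli cells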
Use t when the recorded recombinant barcode read abundance (log10) is no lower than 0.6; use f when it is lower.

Ask: Check this sequence for recombinant barcode read abundance (log10) at or above 0.6: AGCGCTCCTTGGGTTCTAACCTGTTGCCT (site AGCGCTCCTAG)
Result: t

Ask: Check this sequence for recombinant barcode read abundance (log10) at or above 0.6: ACCGCTTCTTGGGTTCTAACCTGTTGCCT (site AGCGCTTCTAG)
Result: f

Ask: Check this sequence for recombinant barcode read abundance (log10) at or above 0.6: GCTCAGACTTGGGTTCTAACCTGTTGCCT (site GCTCAGACTAG)
Result: t

Ask: Check this sequence for recombinant barcode read abundance (log10) at or above 0.6: CAAGAGTCTTGGGTTCTAACCTGTTGCTT (site CAAGAGTCTAA)
Result: t

Ask: Check this sequence for recombinant barcode read abundance (log10) at or above 0.6: CGAATCACTTGGGTTCTAACCTGTTGCCT (site CGAATCACTAG)
Result: t

Ask: Check this sequence for recombinant barcode read abundance (log10) at or above 0.6: GACCGTCCTTGGGTTCTAACCTGTTGCTT (site GACCGTCCTAG)
Result: f

Ask: Check this sequence for recombinant barcode read abundance (log10) at or above 0.6: CGGGCTACTTGGGTTCTAACCTGTTGCTA (site CGGGCTACTTA)
Result: t

Ask: Check this sequence for recombinant barcode read abundance (log10) at or above 0.6: CGTATAGCTTGGGTTCTAACCTGTTGCCT (site CGTGAAGCTAG)
Result: f

Ask: Check this sequence for recombinant barcode read abundance (log10) at or above 0.6: GTTCAAACTTGGGTTCTAACCTGTTGCAT (site GTTCAAACTAT)
Result: t

Ask: Check this sequence for recombinant barcode read abundance (log10) at or above 0.6: TAATGATCTTGGGTTCTAACCTGTTGCCT (site TAATGATCTAG)
Result: t

Ask: Check this sequence for recombinant barcode read abundance (log10) at or above 0.6: ACGGAATCTTGGGTTCTAACCTGTTGCCG (site TAAATCCCTTC)
Result: f

Ask: Check this sequence for recombinant barcode read abundance (log10) at or above 0.6: AGTCGGACTTGGGTTCTAACCTGTTGCTT (site AGTCGGACTAA)
Result: f

Ask: Check this sequence for recombinant barcode read abundance (log10) at or above 0.6: TGCCTAGCTTGGGTTCTAACCTGTTGCCT (site TGACTAGCTAG)
Result: f

Ask: Check this sequence for recombinant barcode read abundance (log10) at or above 0.6: AAGGTGTCTTGGGTTCTAACCTGTTGCCT (site AATGTGTCTAG)
Result: f

Ask: Check this sequence for recombinant barcode read abundance (log10) at or above 0.6: TCGTTGCCTTGGGTTCTAACCTGTTGCCT (site TCGTTCCCTAA)
Result: t

Ask: Check this sequence for recombinant barcode read abundance (log10) at or above 0.6: CTGGAGTCTTGGGTTCTAACCTGTTGCCT (site CTGGTGTCTAG)
Result: t

Ask: Check this sequence for recombinant barcode read abundance (log10) at or above 0.6: GCACTACCTTGGGTTCTAACCTGTTGCCT (site GCACGACCTAG)
Result: f

Ask: Check this sequence for recombinant barcode read abundance (log10) at or above 0.6: TCACTTGCTTGGGTTCTAACCTGTTGCCT (site TCACTTGCTAG)
Result: f
